details: in acetone, 288.15 K

Structure smiles string: O=C(N[C@@H](Cc1c[nH]c2ccccc12)C(=O)O)OCc1ccccc1
solubility (mole fraction): 0.23

* * *

settings: in isopropanol, 288.15 K

Structure smiles string: O=C(N[C@@H](Cc1c[nH]c2ccccc12)C(=O)O)OCc1ccccc1
solubility (mole fraction): 0.0351

* * *

conditions: in acetone, 283.15 K

Structure smiles string: O=C(N[C@@H](Cc1c[nH]c2ccccc12)C(=O)O)OCc1ccccc1
solubility (mole fraction): 0.204

* * *

details: in acetonitrile, 303.15 K
Experimental endpoint: solubility (mole fraction)

Structure smiles string: O=C(N[C@@H](Cc1c[nH]c2ccccc12)C(=O)O)OCc1ccccc1
Reported measurement: 0.06

* * *

conditions: in water, 293.15 K

Structure smiles string: O=C(N[C@@H](Cc1c[nH]c2ccccc12)C(=O)O)OCc1ccccc1
solubility (mole fraction): 6.49e-05

* * *

details: in isobutanol, 303.15 K
Experimental endpoint: solubility (mole fraction)

Structure smiles string: O=C(N[C@@H](Cc1c[nH]c2ccccc12)C(=O)O)OCc1ccccc1
Reported measurement: 0.0302

* * *

conditions: in 2-butanone, 293.15 K

Structure smiles string: O=C(N[C@@H](Cc1c[nH]c2ccccc12)C(=O)O)OCc1ccccc1
solubility (mole fraction): 0.152

* * *

conditions: in acetonitrile, 283.15 K

Structure smiles string: O=C(N[C@@H](Cc1c[nH]c2ccccc12)C(=O)O)OCc1ccccc1
solubility (mole fraction): 0.0197

* * *

settings: in isopropanol, 298.15 K
Experimental endpoint: solubility (mole fraction)

Structure smiles string: O=C(N[C@@H](Cc1c[nH]c2ccccc12)C(=O)O)OCc1ccccc1
Reported measurement: 0.0536

* * *

settings: in n-propanol, 313.15 K
Experimental endpoint: solubility (mole fraction)

Structure smiles string: O=C(N[C@@H](Cc1c[nH]c2ccccc12)C(=O)O)OCc1ccccc1
Reported measurement: 0.104

* * *

conditions: in water, 313.15 K

Structure smiles string: O=C(N[C@@H](Cc1c[nH]c2ccccc12)C(=O)O)OCc1ccccc1
solubility (mole fraction): 0.000109

* * *

conditions: in ethyl acetate, 303.15 K
Experimental endpoint: solubility (mole fraction)

Structure smiles string: O=C(N[C@@H](Cc1c[nH]c2ccccc12)C(=O)O)OCc1ccccc1
Experimental endpoint: solubility (mole fraction)
Reported measurement: 0.0794

* * *

details: in acetone, 313.15 K
Experimental endpoint: solubility (mole fraction)

Structure smiles string: O=C(N[C@@H](Cc1c[nH]c2ccccc12)C(=O)O)OCc1ccccc1
Experimental endpoint: solubility (mole fraction)
Reported measurement: 0.458

* * *

conditions: in ethyl acetate, 283.15 K

Structure smiles string: O=C(N[C@@H](Cc1c[nH]c2ccccc12)C(=O)O)OCc1ccccc1
solubility (mole fraction): 0.0484

* * *

conditions: in ethyl acetate, 293.15 K
Experimental endpoint: solubility (mole fraction)

Structure smiles string: O=C(N[C@@H](Cc1c[nH]c2ccccc12)C(=O)O)OCc1ccccc1
Experimental endpoint: solubility (mole fraction)
Reported measurement: 0.0629

* * *

settings: in isopropanol, 318.15 K
Experimental endpoint: solubility (mole fraction)

Structure smiles string: O=C(N[C@@H](Cc1c[nH]c2ccccc12)C(=O)O)OCc1ccccc1
Experimental endpoint: solubility (mole fraction)
Reported measurement: 0.109

* * *

conditions: in isobutanol, 298.15 K

Structure smiles string: O=C(N[C@@H](Cc1c[nH]c2ccccc12)C(=O)O)OCc1ccccc1
solubility (mole fraction): 0.0245

* * *

details: in ethyl acetate, 308.15 K
Experimental endpoint: solubility (mole fraction)

Structure smiles string: O=C(N[C@@H](Cc1c[nH]c2ccccc12)C(=O)O)OCc1ccccc1
Reported measurement: 0.0906

* * *

details: in n-butanol, 308.15 K

Structure smiles string: O=C(N[C@@H](Cc1c[nH]c2ccccc12)C(=O)O)OCc1ccccc1
solubility (mole fraction): 0.0666

* * *

conditions: in n-butanol, 283.15 K
Experimental endpoint: solubility (mole fraction)

Structure smiles string: O=C(N[C@@H](Cc1c[nH]c2ccccc12)C(=O)O)OCc1ccccc1
Experimental endpoint: solubility (mole fraction)
Reported measurement: 0.0231

* * *

conditions: in 2-butanone, 308.15 K
Experimental endpoint: solubility (mole fraction)

Structure smiles string: O=C(N[C@@H](Cc1c[nH]c2ccccc12)C(=O)O)OCc1ccccc1
Reported measurement: 0.182

* * *

details: in isopropanol, 323.15 K

Structure smiles string: O=C(N[C@@H](Cc1c[nH]c2ccccc12)C(=O)O)OCc1ccccc1
solubility (mole fraction): 0.125
